// reported responders at 20 mg/kg per item
tested on: Candida albicans ATCC10231; assay: Systemic fungal infection in mice, intragastric administration; assay type: in vivo, ICR mice; conditions: Candida albicans, ATCC10231, po, 168 h, read-out: survival rate of mice, day 7, 20 mg/kg intragastric once daily for 5 days; day 7

{"compound": "CC[C@@H]([C@H](C)OC(=O)OC(C)OC(=O)CCCCCOP(=O)([O-])[O-])n1ncn(-c2ccc(N3CCN(c4ccc(OC[C@@H]5CO[C@@](Cn6cncn6)(c6ccc(F)cc6F)C5)cc4)CC3)cc2)c1=O.[Na+].[Na+] (stereo partly shown) [ST0063]", "valueUnit": "%", "responders at 20 mg/kg": 80}
{"compound": "CC[C@@H]([C@H](C)OC(=O)[C@@H](N)CO)n1ncn(-c2ccc(N3CCN(c4ccc(OC[C@@H]5CO[C@@](Cn6c[n+](C(C)OC(=O)N(C)c7ncccc7COC(=O)[C@@H](N)CCCN)cn6)(c6ccc(F)cc6F)C5)cc4)CC3)cc2)c1=O (stereo partly shown) [ST0010]", "valueUnit": "%", "responders at 20 mg/kg": 60}
{"compound": "CC[C@@H]([C@H](C)O)n1ncn(-c2ccc(N3CCN(c4ccc(OC[C@@H]5CO[C@@](Cn6c[n+](C(C)OC(=O)N(C)c7ncccc7COC(=O)[C@@H](N)CO)cn6)(c6ccc(F)cc6F)C5)cc4)CC3)cc2)c1=O (stereo partly shown) [ST0025]", "valueUnit": "%", "responders at 20 mg/kg": 80}
{"compound": "CC[C@@H]([C@H](C)OC(=O)OCOC(=O)CCCCCOP(=O)([O-])[O-])n1ncn(-c2ccc(N3CCN(c4ccc(OC[C@@H]5CO[C@@](Cn6cncn6)(c6ccc(F)cc6F)C5)cc4)CC3)cc2)c1=O.[Na+].[Na+] [ST0073]", "valueUnit": "%", "responders at 20 mg/kg": 70}
{"compound": "CC[C@@H](C(C)OC(=O)OC(C)OC(=O)CCCCCCOP(=O)([O-])[O-])n1ncn(-c2ccc(N3CCN(c4ccc(OC[C@@H]5CO[C@@](Cn6cncn6)(c6ccc(F)cc6F)C5)cc4)CC3)cc2)c1=O.[Na+].[Na+] (stereo partly shown) [ST0070]", "valueUnit": "%", "responders at 20 mg/kg": 70}
{"compound": "CC[C@@H]([C@H](C)O)n1ncn(-c2ccc(N3CCN(c4ccc(OC[C@@H]5CO[C@@](Cn6c[n+](C(C)OC(=O)N(C)c7ncccc7COC(=O)[C@@H](N)CCN)cn6)(c6ccc(F)cc6F)C5)cc4)CC3)cc2)c1=O (stereo partly shown) [ST0006]", "valueUnit": "%", "responders at 20 mg/kg": 70}
{"compound": "CC[C@@H]([C@H](C)O)n1ncn(-c2ccc(N3CCN(c4ccc(OC[C@@H]5CO[C@@](Cn6c[n+](C(C)OC(=O)N(C)c7ncccc7COC(=O)CN)cn6)(c6ccc(F)cc6F)C5)cc4)CC3)cc2)c1=O (stereo partly shown) [ST0002]", "valueUnit": "%", "responders at 20 mg/kg": 70}
{"compound": "CC[C@@H]([C@H](C)O)n1ncn(-c2ccc(N3CCN(c4ccc(OC[C@@H]5CO[C@@](Cn6c[n+](C(C)OC(=O)N(C)c7ncccc7COC(=O)[C@@H](N)CC(N)=O)cn6)(c6ccc(F)cc6F)C5)cc4)CC3)cc2)c1=O (stereo partly shown) [ST0023]", "valueUnit": "%", "responders at 20 mg/kg": 80}
{"compound": "CC[C@@H]([C@H](C)O)n1ncn(-c2ccc(N3CCN(c4ccc(OC[C@@H]5CO[C@@](Cn6c[n+](C(C)OC(=O)N(C)c7ccccc7COC(=O)[C@@H](N)CCCN)cn6)(c6ccc(F)cc6F)C5)cc4)CC3)cc2)c1=O (stereo partly shown) [ST0008]", "valueUnit": "%", "responders at 20 mg/kg": 60}
{"compound": "CC[C@@H]([C@H](C)O)n1ncn(-c2ccc(N3CCN(c4ccc(OC[C@@H]5CO[C@@](Cn6c[n+](C(C)OC(=O)N(C)c7ncccc7COC(=O)[C@@H](N)CCCN)cn6)(c6ccc(F)cc6F)C5)cc4)CC3)cc2)c1=O (stereo partly shown) [ST0003]", "valueUnit": "%", "responders at 20 mg/kg": 80}
{"compound": "CC[C@@H]([C@H](C)O)n1ncn(-c2ccc(N3CCN(c4ccc(OC[C@@H]5CO[C@@](Cn6c[n+](C(C)OC(=O)N(C)c7ncccc7COC(=O)[C@@H](N)CCC(N)=O)cn6)(c6ccc(F)cc6F)C5)cc4)CC3)cc2)c1=O (stereo partly shown) [ST0022]", "valueUnit": "%", "responders at 20 mg/kg": 70}
{"compound": "CC[C@@H](C(C)OC(=O)OC(C)OC(=O)CCOP(=O)([O-])[O-])n1ncn(-c2ccc(N3CCN(c4ccc(OC[C@@H]5CO[C@@](Cn6cncn6)(c6ccc(F)cc6F)C5)cc4)CC3)cc2)c1=O.[Na+].[Na+] (stereo partly shown) [ST0066]", "valueUnit": "%", "responders at 20 mg/kg": 60}
{"compound": "CC[C@@H](C(C)OC(=O)OCOC(=O)CCCCCCOP(=O)([O-])[O-])n1ncn(-c2ccc(N3CCN(c4ccc(OC[C@@H]5CO[C@@](Cn6cncn6)(c6ccc(F)cc6F)C5)cc4)CC3)cc2)c1=O.[Na+].[Na+] (stereo partly shown) [ST0074]", "valueUnit": "%", "responders at 20 mg/kg": 70}
{"compound": "CC[C@@H]([C@H](C)O)n1ncn(-c2ccc(N3CCN(c4ccc(OC[C@@H]5CO[C@@](Cn6c[n+](C(C)OC(=O)N(C)c7ncccc7COC(=O)[C@@H](N)CCCNC(N)=O)cn6)(c6ccc(F)cc6F)C5)cc4)CC3)cc2)c1=O (stereo partly shown) [ST0012]", "valueUnit": "%", "responders at 20 mg/kg": 80}
{"compound": "CC[C@@H]([C@H](C)O)n1ncn(-c2ccc(N3CCN(c4ccc(OC[C@@H]5CO[C@@](Cn6c[n+](C(C)OC(=O)N(C)c7ncccc7COC(=O)[C@@H](N)CCCCN)cn6)(c6ccc(F)cc6F)C5)cc4)CC3)cc2)c1=O (stereo partly shown) [ST0024]", "valueUnit": "%", "responders at 20 mg/kg": 70}
{"compound": "CC[C@@H]([C@H](C)O)n1ncn(-c2ccc(N3CCN(c4ccc(OC[C@@H]5CO[C@@](Cn6c[n+](C(C)OC(=O)N(C)c7ncccc7COC(=O)[C@@H](N)[C@@H](C)O)cn6)(c6ccc(F)cc6F)C5)cc4)CC3)cc2)c1=O (stereo partly shown) [ST0026]", "valueUnit": "%", "responders at 20 mg/kg": 70}

Just for reference, patent US10517867B2 is where these values come from.
